// half-life at 1 μM lookup, one value per entry
# method: Human hepatocyte stability
# Format: in vitro ADME
# measurement.parameters: human hepatocytes 0.5×10^6 cells/mL, 120 minutes, read-out: T1/2 (hepatic)

| molecule | half-life at 1 μM |
| --- | --- |
| COc1ccc(C(=O)N2CCC(COc3ccc(-c4ccc(C#N)cc4)cc3)(C(=O)O)C2)cc1 (stereo not drawn) [Ref, reference compound] | 1.67 to 8.33 h |
| COc1ccc(C(=O)N2CCC(COc3ccc(-c4ccc(C#N)cc4)cc3)(C(=O)NS(C)(=O)=O)C2)cc1 (stereo not drawn) | > 16.7 h |

Next, consider the following molecule.
Q: Find the recorded half-life at 1 μM belonging to COc1ccc(C(=O)N2CCC(COc3ccc(-c4ccc(C#N)cc4)cc3)(C(=O)NS(=O)(=O)C(F)(F)F)C2)cc1 (stereo not drawn) and report it.
Result: 8.33 to 16.7 h

* * *

# assayed.target: EP2 receptor (Homo sapiens)
# method: EP2 potency assay (cAMP TR-FRET, LANCE Ultra cAMP kit, antagonism of prostaglandin E2 at EC80)
# measurement.parameters: CHO-K1 cells transfected with EP2 receptor
parameter: IC50

Observe how each entry below is paired with its result.
| molecule | IC50 |
| --- | --- |
| CCS(=O)(=O)NC(=O)C1(COc2ccc(-c3ccc(C#N)cc3)cc2)CCN(C(=O)c2ccc(OC)cc2)C1 (stereo not shown) | 500 to 1000 nM |
| COc1ccc(C(=O)N2CCC(COc3ccc(-c4ccc(C#N)cc4)cc3)(C(=O)NS(=O)(=O)C(F)(F)F)C2)cc1 (stereo not shown) | 100 to 500 nM |
| COc1ccc(C(=O)N2CCC(COc3ccc(-c4ccc(C#N)cc4)cc3)(C(=O)NC#N)C2)cc1 (stereo not shown) | 1000 to 5000 nM |

Next, consider the following molecule.
Q: Find the recorded IC50 belonging to COc1ccc(C(=O)N2CCC(COc3ccc(-c4ccc(C#N)cc4)cc3)(C(=O)NCC(F)(F)F)C2)cc1 (stereo not shown) and report it.
Result: > 5000 nM

* * *

# assayed.target: EP2 receptor (Homo sapiens)
# method: EP2 potency assay (cAMP TR-FRET, LANCE Ultra cAMP kit, antagonism of prostaglandin E2 at EC80)
# measurement.parameters: CHO-K1 cells transfected with EP2 receptor
// IC50 lookup, one value per entry

Observe how each entry below is paired with its result.
| compound | IC50 |
| --- | --- |
| COc1ccc(C(=O)N2CCC(COc3ccc(-c4ccc(C#N)cc4)cc3)(C(=O)NS(=O)(=O)c3ccccc3)C2)cc1 (centres unmarked) | > 5000 nM |
| COc1ccc(C(=O)N2CCC(COc3ccc(-c4ccc(C#N)cc4)cc3)(C(=O)NS(=O)(=O)C(C)(C)C)C2)cc1 (centres unmarked) | > 5000 nM |

Q: Find the recorded IC50 belonging to COCS(=O)(=O)NC(=O)C1(COc2ccc(-c3ccc(C#N)cc3)cc2)CCN(C(=O)c2ccc(OC)cc2)C1 (centres unmarked) and report it.
Result: 100 to 500 nM

Q: Find the recorded IC50 belonging to COc1ccc(C(N2CCC(COc3ccc(-c4ccc(C#N)cc4)cc3)(C(=O)O)C2)C(F)(F)F)cc1 (centres unmarked) and report it.
Result: > 5000 nM

Q: Find the recorded IC50 belonging to COc1ccc(C(=O)N2CCC(COc3ccc(-c4ccc(C#N)cc4)cc3)(C(=O)NO)C2)cc1 (centres unmarked) and report it.
Result: 1000 to 5000 nM

Q: Find the recorded IC50 belonging to N#Cc1ccc(-c2ccc(OCC3(C(=O)O)CCN(C(c4ccc(Br)cc4)C(F)(F)F)C3)cc2)cc1 (centres unmarked) and report it.
Result: > 5000 nM

Q: Find the recorded IC50 belonging to COc1ccc(C(=O)N2CCC(COc3ccc(-c4ccc(C#N)cc4)cc3)(C(=O)NS(=O)(=O)CC(F)(F)F)C2)cc1 (centres unmarked) and report it.
Result: 1000 to 5000 nM

* * *

# method: Human liver microsome stability
# Format: in vitro ADME
# measurement.parameters: human liver microsomes 0.5 mg/mL, 37° C., 60 minutes, read-out: in vitro CLint (microsomal)
parameter: microsomal CLint at 2 μM

Observe how each entry below is paired with its result.
| compound | microsomal CLint at 2 μM |
| --- | --- |
| COc1ccc(C(=O)N2CCC(COc3ccc(-c4ccc(C#N)cc4)cc3)(C(=O)NS(=O)(=O)C(F)(F)F)C2)cc1 (stereo not shown) [Compound 4-24] | 1 to 10 µL/min/mg |
| COc1ccc(C(=O)N2CCC(COc3ccc(-c4ccc(C#N)cc4)cc3)(C(=O)NS(C)(=O)=O)C2)cc1 (stereo not shown) [Compound 4-19] | < 1 µL/min/mg |
| COc1ccc(C(=O)N2CCC(C#N)(COc3ccc(-c4ccc(C#N)cc4)cc3)C2)cc1 (racemic) [Compound 2-3] | > 20 µL/min/mg |
| COc1ccc2cc(OCC3(C#N)CN(C(=O)c4ccc(F)cc4)C3)ccc2c1 [Compound 1-3] | > 20 µL/min/mg |
| COc1ccc(C(=O)N2CCC(COc3ccc(-c4ccc(C#N)cc4)cc3)(C(=O)O)C2)cc1 (stereo not shown) [Ref, reference compound] | 1 to 10 µL/min/mg |

Q: Find the recorded microsomal CLint at 2 μM belonging to COc1ccc(C(=O)N2CCC(COc3ccc(-c4ccc(C#N)cc4)cc3)(n3nn[nH]c3=O)C2)cc1 (racemic) [Compound 2-2] and report it.
Result: 1 to 10 µL/min/mg

Q: Find the recorded microsomal CLint at 2 μM belonging to COc1ccc2cc(OCC3(n4nn[nH]c4=O)CN(C(=O)c4ccc(F)cc4)C3)ccc2c1 [Compound 1-2] and report it.
Result: 1 to 10 µL/min/mg

* * *

# method: Human liver microsome stability
# Assay type: in vitro ADME
# measurement.parameters: human liver microsomes 0.5 mg/mL, 37° C., 60 minutes, read-out: T1/2 (microsomal)
# Protocol: The tested compound was incubated in duplicate with human liver microsomes (0.5 mg/mL) at 37° C. These incubations were carried out at a final test article concentration of 2 μM over a total incubation period of 60 minutes. […] The samples were analyzed by UPLC-MS/MS to determine the concentration of the test compound and the percent remaining, intrinsic clearance (in vitro CLint) and half-life (t1/2) values were calculated. […]
// half-life at 2 μM lookup, one value per entry

| compound | parameter | assay.result |
| --- | --- | --- |
| COc1ccc(C(=O)N2CCC(COc3ccc(-c4ccc(C#N)cc4)cc3)(C(=O)NS(=O)(=O)C(F)(F)F)C2)cc1 (stereo not shown) | half-life at 2 μM | 1.67 to 8.33 h |
| COc1ccc(C(=O)N2CCC(C#N)(COc3ccc(-c4ccc(C#N)cc4)cc3)C2)cc1 (racemic) | half-life at 2 μM | < 1.67 h |
| COc1ccc(C(=O)N2CCC(COc3ccc(-c4ccc(C#N)cc4)cc3)(C(=O)O)C2)cc1 (stereo not shown) [Ref, reference compound] | half-life at 2 μM | 8.33 to 16.7 h |
| COc1ccc2cc(OCC3(C#N)CN(C(=O)c4ccc(F)cc4)C3)ccc2c1 | half-life at 2 μM | < 1.67 h |
| COc1ccc(C(=O)N2CCC(COc3ccc(-c4ccc(C#N)cc4)cc3)(C(=O)NS(C)(=O)=O)C2)cc1 (stereo not shown) | half-life at 2 μM | > 16.7 h |

Q: Find the recorded half-life at 2 μM belonging to COc1ccc2cc(OCC3(n4nn[nH]c4=O)CN(C(=O)c4ccc(F)cc4)C3)ccc2c1 and report it.
Result: 1.67 to 8.33 h

Q: Find the recorded half-life at 2 μM belonging to COc1ccc(C(=O)N2CCC(COc3ccc(-c4ccc(C#N)cc4)cc3)(n3nn[nH]c3=O)C2)cc1 (racemic) and report it.
Result: 8.33 to 16.7 h

* * *

// IC50 lookup, one value per entry
# assayed.target: EP2 receptor (Homo sapiens, UniProt P43116)
# Sequence (P43116 whole entry): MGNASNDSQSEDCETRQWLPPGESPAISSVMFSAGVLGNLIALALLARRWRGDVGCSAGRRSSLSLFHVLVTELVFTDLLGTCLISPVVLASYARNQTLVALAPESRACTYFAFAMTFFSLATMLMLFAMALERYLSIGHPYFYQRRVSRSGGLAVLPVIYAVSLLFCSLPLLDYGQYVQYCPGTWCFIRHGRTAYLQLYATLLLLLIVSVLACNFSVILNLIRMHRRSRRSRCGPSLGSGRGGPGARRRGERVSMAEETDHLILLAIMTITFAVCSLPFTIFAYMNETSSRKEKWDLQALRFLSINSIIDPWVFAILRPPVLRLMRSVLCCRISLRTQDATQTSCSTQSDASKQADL
# method: EP2 potency assay (cAMP TR-FRET, LANCE Ultra cAMP kit, antagonism of prostaglandin E2 at EC80)
# measurement.parameters: CHO-K1 cells transfected with EP2 receptor
# Protocol: Compound potency was measured using a cAMP TR-FRET assay. […] To measure levels of cAMP, 5 μl/well of Eu-cAMP working solution and 5 μl/well of Ulight-anti-cAMP working solution were added to each well, and plate was centrifuged at 1000 rpm for 1 min, agitated at 600 rpm at R.T. for 2 min, and incubated at 25° C. for 15 min. Levels of TR-FRET fluorescence were measured in each well using an EnVision microplate reader (excitation wavelength=337 nm and emission wavelength=615 and 665 nm). […]

Observe how each entry below is paired with its result.
| molecule | IC50 |
| --- | --- |
| COc1ccc(C(=O)N2CCC(COc3ccc(-c4ccc(C#N)cc4)cc3)(c3cc[nH]c(=O)c3)C2)cc1 (stereo not drawn) | > 5 µM |
| COc1ccc(C(=O)N2CCC(COc3ccc(-c4ccc(C#N)cc4)cc3)(n3nn[nH]c3=O)C2)cc1 (racemic) | 0.5 to 1 µM |

Q: Give IC50 (EP2 receptor (Homo sapiens, UniProt P43116)) of the following molecule: COc1ccc(C(=O)N2CCC(COc3ccc(-c4ccc(C#N)cc4)cc3)(C(=O)N(C)O)C2)cc1 (stereo not drawn)
Result: 1 to 5 µM
